assay: small-molecule microarray binders of probe aShh, primary screen, biochemical, biotinylated probe, 635/667 nm fluorescence (AID 1114); details: higher = more signal;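 note: probe is biotin-labelled aShh protein from a stem cell growth factor screen; measures binding of labelled protein to compounds printed on the slide; score merges feature fluorescence at 667 nm with signal-to-noise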
measured_endpoint: composite z-score
Write the number on its own, no unit after it.

Would you mind telling me what composite z-score value was observed for CN(C)C(=O)C1N=C(c2ccc(OCCCO)cc2)N(c2ccccc2)O1 (stereo unspecified) ?
-0.0733

Would you mind telling me what composite z-score value was observed for COc1ccc(-c2cc3c(c(CCc4ccccc4)n2)[Si](C(C)C)(C(C)C)OC3)cn1 ?
-0.147

Would you mind telling me what composite z-score value was observed for O=C1O[C@@H](c2ccccc2)[C@@H](c2ccccc2)N2[C@@H](c3ccc(OCCO)cc3)[C@]3(C(=O)Nc4ccccc43)[C@@H](C(=O)O)[C@H]12 ?
0.297

Would you mind telling me what composite z-score value was observed for O=C(NCC(F)(F)F)[C@@H]1c2ccccc2C(=O)N(Cc2cc(F)cc(C(F)(F)F)c2)[C@H]1c1ccc(CO)cc1 ?
-0.0709

Would you mind telling me what composite z-score value was observed for C=CCOC(=O)[C@H]1[C@@H]2C(=O)O[C@@H](c3ccccc3)[C@@H](c3ccccc3)N2[C@@H](c2ccc(OCCOC(=O)[C@@H]3C[C@@H]4C(=O)N[C@@H](CCCCNC(C)=O)C(=O)N4[C@@H]3c3ccc(O)cc3)cc2)[C@]12C(=O)Nc1ccc(I)cc12 ?
0.131

Would you mind telling me what composite z-score value was observed for C=CCOC(=O)[C@H]1[C@@H]2C(=O)O[C@@H](c3ccccc3)[C@@H](c3ccccc3)N2[C@@H](c2ccc(OCCOC(=O)[C@@H]3C[C@@H]4C(=O)N[C@@H](CCCCN(C)C)C(=O)N4[C@@H]3c3ccc(O)cc3)cc2)[C@]12C(=O)Nc1ccccc12 ?
-0.0709
